assay: solvent given as SMILES; conditions: in O=C1CCCCC1
Rule: solvation free energy, 298 K of -4 kcal/mol or more gives Yes; anything lower gives No.

Record `CCBr` ; criterion: solvation free energy, 298 K no lower than -4 kcal/mol. Met? Yes

Record `c1ccccc1` ; criterion: solvation free energy, 298 K no lower than -4 kcal/mol. Met? No

Record `C=CCCC` ; criterion: solvation free energy, 298 K no lower than -4 kcal/mol. Met? Yes

Record `ClCCl` ; criterion: solvation free energy, 298 K no lower than -4 kcal/mol. Met? No

Record `[2H][2H]` ; criterion: solvation free energy, 298 K no lower than -4 kcal/mol. Met? Yes

Record `CC(C)CC(C)C` ; criterion: solvation free energy, 298 K no lower than -4 kcal/mol. Met? Yes

Record `FS(F)(F)(F)(F)F` ; criterion: solvation free energy, 298 K no lower than -4 kcal/mol. Met? Yes

Record `O=C(O)CCCCC(=O)O` ; criterion: solvation free energy, 298 K no lower than -4 kcal/mol. Met? No

Record `Cc1ccccc1` ; criterion: solvation free energy, 298 K no lower than -4 kcal/mol. Met? No

Record `CCC(C)C` ; criterion: solvation free energy, 298 K no lower than -4 kcal/mol. Met? Yes

Record `CCCC(C)C` ; criterion: solvation free energy, 298 K no lower than -4 kcal/mol. Met? Yes

Record `CC(C)(C)Cl` ; criterion: solvation free energy, 298 K no lower than -4 kcal/mol. Met? Yes

Record `ClC(Cl)(Cl)Cl` ; criterion: solvation free energy, 298 K no lower than -4 kcal/mol. Met? No
